# Test system: Bacillus subtilis
# assay_details: cleaved RNA product abundance (RNA/gDNA barcode ratio) relative to median wild-type variant (ratio to wild type); higher = more accumulation of the downstream cleavage product
# assay_setup: experiment (reporter, strain, medium): exp 2b: truncated aprE reporter, strain BJT200; cleavage site: cggR-gapA (positions -7 to +36 mutated)
Attribute: cleaved RNA product abundance
Returns: the value as a bare number; no unit string appended.

Completed entries (count: 2):
ACAGACGAAGGAGCCGCAAAGAAGTTACTAAGGAATGAATAATCCCTCAATATAAATATCTCTCACTTATTTAAA :: 0.0952
ACAGACGAAGGAGCCGCAAATAAGTTATTAGGGGATGAATAATCCCTCAATATAAATATCTCTCACTTATTTAAA :: 0.603

Data request: Query: cleaved RNA product abundance; subject: `ACAGACGAAGGAGCCGCAAAGAAGTTATTAAGGAATGAATAATCCCTCATTATAAATATCTCTCACTTATTTAAA`
Data returned: 0.102

Data request: // lookup cleaved RNA product abundance for `ACAGACGAAGGAGCCGCAAAGAAGTGATGAAGGGATGAATAATCCCTCAATATAAATATCTCTCACTTATTTAAA`
Data returned: 0.446
